test system: MS2 coat protein; test: apparent KD of MS2 coat protein; higher = weaker reporter binding; conditions: Eterna round: R107; input ligand: none
Respond with fulfilled for apparent KD of MS2 coat protein values of 30 nM and above, not fulfilled for values below.

Query string: Dear colleague, could you confirm whether GGACUAACCUGAAGGAGCGGCACGCAGAAACUGCAAAUUCCUCCACACGAGGAUCACCCGUGUCAGGUAGGUCGCAGGUUAGUCG [ArgBX 28] has apparent KD of MS2 coat protein at or above 30 nM?
Result string: not fulfilled

Query string: # bool: apparent KD of MS2 coat protein of UAUAUAGAUGGAAGUCAUAUAGAUGCAGAAGGAGCGUAGGAAACUACAGGUAGGUCGCUGAGGUACAUGAGGAUCACCCAUGUAG [SSArg A #18 Slice of Pi] >= 30 nM
Result string: not fulfilled

Query string: Given the entry AUAACUGUAAUAAACCGCAGGCUAGUGGAAGGAGCGCGGAAUAACGCAGGUAGGUCGCCACAAACAUGAGGAUCACCCAUGUGGC [SSAA NP+V+V2 #6] , answer whether its apparent KD of MS2 coat protein meets or surpasses 30 nM.
Result string: not fulfilled

Query string: Is it the case that CUCUCAUGAACAUGAGGAUCACCCAUGUAACGAGGACCGGUACGGCCGCCACUCGGUCGUGGAAACUAAUCGAGUGAGGUGGGAG [Tryp A Ex t5c] has apparent KD of MS2 coat protein reaching or exceeding 30 nM?
Result string: fulfilled

Query string: Kindly determine if apparent KD of MS2 coat protein recorded for CUAUGCAGGUCGGCCGCCACUACACACAUGAGGAUCACCCAUGUAGUUACUGGGUGAAGUGGCAGUAGGACCGGGACCUGCAUAC [Brourdmod10] is above or exactly 30 nM.
Result string: fulfilled

Query string: # bool: apparent KD of MS2 coat protein of UCACAUGAGGAUCACCCAUGUAUAGUUGAAGGAGCGAUCAGGAGGUCAGGUAGGUCGCAGCACAUGAGGAUCACCCAUGUAUCGA [DOUBLE!!! :-D #4] >= 30 nM
Result string: fulfilled

Query string: Does the sequence UCGGGCAGAGCGGCCGCCACUGUUUGGCAUGCGGAUGACGGAACAUGAGGAUCACCCAUGUUGAUUAGGACCGGGCUUGCGGAGA [eefullin] have recorded apparent KD of MS2 coat protein that is 30 nM or more?
Result string: not fulfilled

Query string: Please indicate if the recorded apparent KD of MS2 coat protein for CAAUAUAUAUGAAGGAGCGUCGAAAAUGGGUAAACAUGAGGAUCACCCAUGUAAAGGGAACGACAGGUAGGUCGCAUAUAUAUUG [AstromonsSSArgB#8] meets or exceeds 30 nM.
Result string: fulfilled

Query string: Decide: is the reported value of apparent KD of MS2 coat protein for AGAGUCAGACAAAAGUCUGGCUCAGCCGAAGGAGCGUCCGAAAGGACAGGUAGGUCGCGGUUACAUGAGGAUCACCCAUGUUCCU [ArgAS 7 #OpenEnded] equal to or greater than 30 nM?
Result string: fulfilled

Query string: Check if apparent KD of MS2 coat protein >= 30 nM (inclusive). Item: AGCCAUGGAAACAUGGCGGCGGCUUGGGCGCGAGGACCGGUACGGCCGCCACUCGGGCAACAUGAGGAUCACCCAUGUUCCUCAU [ETA NP+V+V2 #18]
Result string: fulfilled
